MEASURED TARGET: CCL7 (Homo sapiens)
Sequence (P80098 24-99, species assumed): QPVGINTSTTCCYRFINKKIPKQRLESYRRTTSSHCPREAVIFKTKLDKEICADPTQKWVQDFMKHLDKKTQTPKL
METHOD NOTES: Chemokine glycan microarray binding assay
MEASUREMENT PARAMETERS: maximum RFU set as 100% binding, average across 2 glycan concentrations and 3 chemokine dilutions (n=6)
Listed below: mean rank binding to CCL7 values for each entry.
Please give a number only; it is taken to be in %.

Answered examples (8):
COMPOUND	MEASURED TARGET	ASSAY ENDPOINT	READOUT UNIT	MEASURED VALUE
NCCCO[C@@H]1OC(C(=O)O)[C@@H](O[C@H]2OC(CO)[C@@H](O[C@@H]3OC(C(=O)O)[C@@H](O[C@H]4OC(CO)[C@@H](O)C(O)C4N)C(O)C3O)C(O)C2N)C(O)C1O (stereo partly drawn) [Example 15]	CCL7 (Homo sapiens)	mean rank binding to CCL7	%	45
NCCOCCO[C@@H]1O[C@@H](C(=O)O)[C@@H](O[C@@H]2O[C@@H](C(=O)O)[C@@H](O[C@@H]3O[C@@H](C(=O)O)[C@@H](OS(=O)(=O)O)[C@H](O)[C@H]3O)[C@H](O)[C@H]2O)[C@H](O)[C@H]1O [Example 8]	CCL7 (Homo sapiens)	mean rank binding to CCL7	%	12
CC(=O)NC1C(O)[C@H](O)C(CO)O[C@@H]1O[C@@H]1C(C(=O)O)O[C@@H](O[C@@H]2C(CO)O[C@H](O[C@@H]3C(C(=O)O)O[C@@H](OCCCN)C(OS(=O)(=O)O)C3O)C(NC(C)=O)C2O)C(OS(=O)(=O)O)C1O (stereo partly drawn) [Example 14]	CCL7 (Homo sapiens)	mean rank binding to CCL7	%	1
NCCOCCO[C@@H]1OC(C(=O)O)[C@@H](O[C@@H]2OC(C(=O)O)[C@@H](O)C(O)C2O)C(O)C1O (stereo partly drawn) [Example 4]	CCL7 (Homo sapiens)	mean rank binding to CCL7	%	33
CC(=O)NC1C(O)[C@H](O)C(COS(=O)(=O)O)O[C@@H]1O[C@@H]1C(C(=O)O)O[C@@H](O[C@@H]2C(COS(=O)(=O)O)O[C@H](O[C@@H]3C(C(=O)O)O[C@@H](OCCCN)C(OS(=O)(=O)O)C3O)C(NC(C)=O)C2O)C(OS(=O)(=O)O)C1O (stereo partly drawn) [Example 20]	CCL7 (Homo sapiens)	mean rank binding to CCL7	%	86
NCCOCCO[C@@H]1OC(C(=O)O)[C@@H](O[C@@H]2OC(C(=O)O)[C@@H](O[C@@H]3OC(C(=O)O)[C@@H](O)C(O)C3O)C(O)C2O)C(O)C1O (stereo partly drawn) [Example 7]	CCL7 (Homo sapiens)	mean rank binding to CCL7	%	75
NCCOCCO[C@@H]1OC(C(=O)O)[C@@H](O[C@@H]2OC(C(=O)O)[C@@H](O[C@@H]3OC(C(=O)O)[C@@H](O[C@@H]4OC(C(=O)O)[C@@H](O)C(O)C4O)C(O)C3O)C(O)C2O)C(O)C1O (stereo partly drawn) [Example 10]	CCL7 (Homo sapiens)	mean rank binding to CCL7	%	87
NCCCO[C@@H]1O[C@@H](C(=O)O)[C@@H](O[C@H]2O[C@H](CO)[C@@H](O[C@@H]3O[C@@H](C(=O)O)[C@@H](O[C@H]4O[C@H](CO)[C@@H](O)[C@H](OS(=O)(=O)O)[C@H]4N)[C@H](O)[C@H]3OS(=O)(=O)O)[C@H](OS(=O)(=O)O)[C@H]2N)[C@H](O)[C@H]1OS(=O)(=O)O [Example 18]	CCL7 (Homo sapiens)	mean rank binding to CCL7	%	35

Lab note: next compound to report on.
Consider NCCCO[C@@H]1OC(C(=O)O)[C@@H](O[C@H]2OC(COS(=O)(=O)O)[C@@H](O[C@@H]3OC(C(=O)O)[C@@H](O[C@H]4OC(COS(=O)(=O)O)[C@@H](O)C(O)C4N)C(O)C3OS(=O)(=O)O)C(O)C2N)C(O)C1OS(=O)(=O)O (stereo partly drawn) [Example 19] . Its measured mean rank binding to CCL7 is 91
